- system-name: Dickkopf-related protein 1 (Homo sapiens) (UniProt O94907)
- Sequence (O94907 whole entry, looked up): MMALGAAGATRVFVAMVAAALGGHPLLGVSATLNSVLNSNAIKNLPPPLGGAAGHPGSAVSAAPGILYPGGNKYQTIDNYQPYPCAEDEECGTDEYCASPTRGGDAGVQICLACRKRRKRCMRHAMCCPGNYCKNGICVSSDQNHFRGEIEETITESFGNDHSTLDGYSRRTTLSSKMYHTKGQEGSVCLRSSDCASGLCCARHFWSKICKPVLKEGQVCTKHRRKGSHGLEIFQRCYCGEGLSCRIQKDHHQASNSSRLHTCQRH
- assay-overview: DKK1 binders on small-molecule microarrays, primary screen, biochemical, small-molecule microarray, 635 nm fluorescence scan (AID 1106);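 further: score merges emission near 667 nm with signal to noise over three replicate slides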
- test-conditions: DKK1 binding, higher = more signal
Rule: composite z-score under -0.06 gives not fulfilled, otherwise fulfilled.

Does composite z-score meet or surpass -0.06 for CC(C)C[C@@H]1NC(=O)[C@H](C(C)C)NC(=O)[C@@]23C(=O)N[C@@H](Cc4ccccc4)C2[C@H](C)[C@@]2(C)O[C@H]2C3/C=C/CC/C=C/CNC1=O (stereo partly specified) ?
fulfilled

Does composite z-score meet or surpass -0.06 for COC(=O)C(CC#Cc1ccc2c(c1)[C@]1(C(=O)N2)[C@H](c2ccc(OCCO)cc2)N2[C@H](c3ccccc3)[C@H](c3ccccc3)OC(=O)[C@H]2[C@@H]1C(=O)Nc1nc2ccccc2s1)C(=O)OC ?
fulfilled

Does composite z-score meet or surpass -0.06 for COc1ccc(C#Cc2ccc3c(c2)[C@]2(C(=O)N3)[C@H](c3ccccc3OCCO)N3[C@H](c4ccccc4)[C@H](c4ccccc4)OC(=O)[C@H]3[C@@H]2C(=O)Nc2nc3ccccc3s2)cc1 ?
fulfilled

Does composite z-score meet or surpass -0.06 for C=CCC(OC(C)=O)[C@@H]1[C@@H](N(Cc2ccc(-c3cccc(C(F)(F)F)c3)o2)C(=O)c2ccc(C)cc2)c2cc(OCCCO)ccc2N1C(=O)Cc1ccc2ccccc2c1 (stereo partly specified) ?
not fulfilled

Does composite z-score meet or surpass -0.06 for COc1cc(Br)cc(C(O)C2C=CC3C(=O)N(C)C(=O)C3N2N2CCCCC2)c1OC (stereo unspecified) ?
not fulfilled

Does composite z-score meet or surpass -0.06 for COCCOC(=O)N1C(=O)[C@@]2(c3cc(C#CCC(C(=O)OC)C(=O)OC)ccc31)[C@H](C(=O)Nc1nc3ccccc3s1)[C@H]1C(=O)O[C@H](c3ccccc3)[C@H](c3ccccc3)N1[C@@H]2c1ccccc1OCCO ?
not fulfilled

Does composite z-score meet or surpass -0.06 for C[C@H]1C2[C@H](Cc3ccccc3)NC(=O)[C@]23C(=O)N[C@H](Cc2ccccc2)C(=O)N2CCC[C@H]2C(=O)NC/C=C\C/C=C/C3[C@@H]2O[C@]12C (stereo partly specified) ?
fulfilled

Does composite z-score meet or surpass -0.06 for CCOC(=O)C[C@H]1[C@H](OC(=O)c2ccc(C(=O)c3ccccc3)cc2)[C@@H](NC(=O)CC(C)C)c2cc(OCCCO)ccc2N1C(=O)c1ccc2ccccc2n1 ?
fulfilled

Does composite z-score meet or surpass -0.06 for O=C1C[C@]2(c3ccc([N+](=O)[O-])cc3)C(=O)N(CC(F)(F)F)c3cc(CO)ccc3[C@H]2N1C1CCCCC1 ?
not fulfilled

Does composite z-score meet or surpass -0.06 for C=C(/C(=C/C[C@H](OC(C)=O)c1ccccc1OCCO)c1cnc2ccccc2c1)C(C)C ?
fulfilled

Does composite z-score meet or surpass -0.06 for CCN(CC)c1ccc(N2CC=CC34O[C@@H]5C=CCCOC(=O)C5[C@H]3C(=O)N(CCCCCCO)[C@@H]4C2=O)cc1 (stereo partly specified) ?
not fulfilled

Does composite z-score meet or surpass -0.06 for CO[C@H]1O[C@H](CO)[C@@H](OC(=O)Nc2ccc(Oc3ccccc3)cc2)[C@H](OC(=O)Nc2ccc3c(c2)OCO3)[C@H]1OC(=O)Nc1ccc2c(c1)OCO2 ?
fulfilled

Does composite z-score meet or surpass -0.06 for COCCOC(=O)N1C(=O)[C@@]2(c3cc(C#CCC(C(=O)OC)C(=O)OC)ccc31)[C@H](c1ccccc1OCCO)N1[C@H](c3ccccc3)[C@H](c3ccccc3)OC(=O)[C@H]1[C@@H]2C(=O)NC[C@H](O)c1ccccc1 ?
fulfilled

Does composite z-score meet or surpass -0.06 for COC(=O)[C@@]1(Cc2ccccc2)N=C(c2ccc(OCCCO)cc2)O[C@H]1c1ccccc1 ?
not fulfilled

Does composite z-score meet or surpass -0.06 for C=C[C@H](C)[C@@H](OC(=O)Nc1ccc(OC)cc1)c1ccc(O)c2ccccc12 ?
fulfilled

Does composite z-score meet or surpass -0.06 for CN(C)CCCCCCNC(=O)[C@@H]1C[C@@H]2C(=O)N[C@@H](Cc3ccccc3)C(=O)N2[C@@H]1c1ccc(O)cc1 ?
fulfilled

Does composite z-score meet or surpass -0.06 for COCCOC(=O)N1C(=O)[C@@]2(c3cc(C#Cc4ccc(OC)cc4)ccc31)[C@H](c1ccc(OCCO)cc1)N1[C@H](c3ccccc3)[C@H](c3ccccc3)OC(=O)[C@H]1[C@@H]2C(=O)N1CCN(c2ncccn2)CC1 ?
fulfilled

Does composite z-score meet or surpass -0.06 for C=CCNC(=O)[C@@H]1[C@H]2C(=O)O[C@H](c3ccccc3)[C@H](c3ccccc3)N2[C@H](c2ccc(O)cc2)[C@@]12C(=O)Nc1ccc(C#CCNC(N)=O)cc12 ?
not fulfilled

Does composite z-score meet or surpass -0.06 for CC#CC(=O)Oc1ccccc1C=CC(=O)OCC ?
fulfilled

Does composite z-score meet or surpass -0.06 for COc1ccc([Si](C)(C)[C@@H]2[C@@H](CC(=O)N3CCC[C@H]3CO)O[C@]3(C(=O)N(c4ccccc4)c4ccccc43)[C@H]2C)cc1 ?
fulfilled

Does composite z-score meet or surpass -0.06 for C=C[C@H](CO[Si](CC)(CC)CC)N(Cc1ccc(OC(C)=O)c(OC)c1)S(=O)(=O)c1ccc(Br)cc1 ?
fulfilled

Does composite z-score meet or surpass -0.06 for COc1ccc([Si](C)(C)[C@@H]2[C@@H](CCO)O[C@]3(C(=O)N(Cc4ccc(N(C=O)c5ccccc5)cc4)c4ccccc43)[C@H]2C)cc1 ?
fulfilled

Does composite z-score meet or surpass -0.06 for CC(=O)NCCCC[C@@H]1NC(=O)[C@H]2C[C@@H](C(=O)NCCCCCCNC(=O)CS)[C@@H](c3ccc(O)cc3)N2C1=O ?
not fulfilled

Does composite z-score meet or surpass -0.06 for COC(=O)[C@@]1(Cc2ccc(OC)cc2)[C@H]2c3cc(C(=O)N(C)C)n(Cc4ccc(S(C)(=O)=O)cc4)c3C[C@H]2CN1C(=O)c1ccccc1 ?
fulfilled

Does composite z-score meet or surpass -0.06 for CN1C(=O)C2C=CC(C(O)c3ccccc3)N(N(c3ccccc3)c3ccccc3)C2C1=O (stereo unspecified) ?
fulfilled
